Molecular target: Protein deacetylase HDAC6 (Homo sapiens) (UniProt Q9UBN7)
Sequence (Q9UBN7 whole entry): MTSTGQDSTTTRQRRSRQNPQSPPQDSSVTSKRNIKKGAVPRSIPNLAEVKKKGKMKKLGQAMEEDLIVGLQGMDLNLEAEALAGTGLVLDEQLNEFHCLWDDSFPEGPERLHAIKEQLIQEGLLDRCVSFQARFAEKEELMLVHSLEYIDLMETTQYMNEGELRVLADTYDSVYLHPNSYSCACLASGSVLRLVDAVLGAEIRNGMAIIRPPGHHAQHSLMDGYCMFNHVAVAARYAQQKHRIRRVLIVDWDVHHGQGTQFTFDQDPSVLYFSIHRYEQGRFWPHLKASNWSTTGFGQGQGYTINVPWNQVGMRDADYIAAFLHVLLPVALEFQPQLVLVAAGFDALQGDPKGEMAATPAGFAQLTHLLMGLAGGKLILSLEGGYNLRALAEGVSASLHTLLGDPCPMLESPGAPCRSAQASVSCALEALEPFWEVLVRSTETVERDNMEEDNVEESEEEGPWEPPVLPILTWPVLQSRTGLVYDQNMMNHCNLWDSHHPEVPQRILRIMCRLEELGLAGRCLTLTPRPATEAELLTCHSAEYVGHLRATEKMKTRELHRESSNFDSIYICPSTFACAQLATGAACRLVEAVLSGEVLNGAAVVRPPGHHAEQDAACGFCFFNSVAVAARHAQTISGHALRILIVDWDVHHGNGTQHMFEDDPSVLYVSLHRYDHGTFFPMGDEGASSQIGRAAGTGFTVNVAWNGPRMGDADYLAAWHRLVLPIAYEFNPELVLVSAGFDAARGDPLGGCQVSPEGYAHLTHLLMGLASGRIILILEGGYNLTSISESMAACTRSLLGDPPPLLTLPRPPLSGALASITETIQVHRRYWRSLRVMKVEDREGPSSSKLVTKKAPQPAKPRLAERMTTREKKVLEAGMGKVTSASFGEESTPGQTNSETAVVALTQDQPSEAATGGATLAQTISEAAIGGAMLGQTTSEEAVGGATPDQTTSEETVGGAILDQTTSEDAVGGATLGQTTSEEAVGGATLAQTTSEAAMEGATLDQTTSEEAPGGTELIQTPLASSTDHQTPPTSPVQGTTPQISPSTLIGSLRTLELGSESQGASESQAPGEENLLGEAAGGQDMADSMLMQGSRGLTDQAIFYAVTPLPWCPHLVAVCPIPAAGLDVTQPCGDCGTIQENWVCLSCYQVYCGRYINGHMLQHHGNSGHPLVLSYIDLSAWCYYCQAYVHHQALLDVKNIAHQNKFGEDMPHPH
Settings: at 10 µM
Among all 5,600 compounds or so, about 390 (7%) showed an effect of 50% or more. Many of the other results were omitted from the sample, so strong results are more common in it than they were.
This section presents molecules with their documented inhibition values.
Record the value in %, omitting the unit from your answer.

Use these answered entries as a reference point.
CC(C)(C)c1ccc(NC(=O)N2CCN(c3ncccc3Cl)CC2)cc1 :: 24.7
CC(C)Nc1cccnc1N1CCN(C(=O)c2cc3cc(NS(C)(=O)=O)ccc3[nH]2)CC1 :: 51.2

Qu. Recall and state the measured inhibition for COC(=O)C1=C(C)NC(C)=C(C(=O)O[C@@H]2CCCN(Cc3ccccc3)C2)[C@@H]1c1cccc([N+](=O)[O-])c1 .
Ans. 16.7

Qu. Recall and state the measured inhibition for Nc1ncnc2c1ncn2[C@@H]1O[C@H](C[C@@H](N)CC[C@H](N)C(=O)O)[C@@H](O)[C@H]1O .
Ans. -9.09

----------
This section presents molecules with their documented inhibition values.
Target: Protein deacetylase HDAC6 (Homo sapiens)
Details: at 10 µM
Hit rate of the full screen: of about 5,600 compounds, about 390 (7%) showed an effect of 50% or more. For the sample, strong results were picked, then their nearest neighbours and some compounds at random.
Record the value in %, omitting the unit from your answer.

O=C(Nc1cccc2cccnc12)c1ccc(N2C(=O)[C@@H]3[C@H](C2=O)[C@H]2C=C[C@@H]3C2)cc1 :: -1.4
O=C(NCC1CCCCN1)c1cc(OCC(F)(F)F)ccc1OCC(F)(F)F (centres undefined) :: -2.24
Clc1cccc(-n2nnnc2NCc2ccccc2Oc2ccccn2)c1Cl :: 0.62
O=C1C(Cl)=C(N2CCOCC2)C(=O)N1c1ccc(Cl)c(Cl)c1 :: 86
Cc1ccc(NC2=CC(=O)c3sc(C)nc3C2=O)cc1 :: 53.2
CNC(=O)[C@H]1O[C@@H](n2cnc3c(NCc4cccc(I)c4)ncnc32)[C@H](O)[C@@H]1O :: 9.22
CNc1ncc2cc(-c3cc(NC(=O)NCCC(C)(C)C)c(F)cc3C)c(C)nc2n1 :: 12.4
O=C(Nc1ccccc1-c1cn2c(CN3CCNCC3)csc2n1)c1cnc2ccccc2n1 :: 55.6
CCC(=O)c1cc(-c2ccc(Cl)cc2)n(-c2ccc(S(N)(=O)=O)cc2)c1C :: 23.3
CC(C)C[C@@H](C(=O)N[C@H](C(=O)OC1CCCC1)c1ccccc1)[C@H](O)C(=O)NO :: -7.78

Qu. Recall and state the measured inhibition for C[n+]1cccc(C(=O)[O-])c1 .
Ans. 7.12

----------
Biological target: Protein deacetylase HDAC6 (Homo sapiens) (UniProt Q9UBN7)
Conditions: at 10 µM
Out of some 5,600 compounds screened, about 390 (7%) showed an effect of 50% or more. The full list was thinned out, with strong results kept by preference.
This section presents compounds with their documented inhibition values.

Use these answered entries as a reference point.
C[C@H]1[C@H](C)CC[C@]2(C(=O)O)CC[C@]3(C)C(=CC[C@@H]4[C@@]5(C)C[C@@H](O)[C@H](O)[C@@](C)(CO)[C@@H]5CC[C@]43C)[C@H]12 :: -0.26%
O=C(OCC(O)CO)c1ccccc1Nc1ccnc2cc(Cl)ccc12 (centres undefined) :: 94.8%
Clc1ccc2c(NCCNc3ccnc4cc(Cl)ccc34)ccnc2c1 :: 14.9%

Qu. Recall and state the measured inhibition for O=C(Nc1cccc2c(=O)cc(-c3nnn[nH]3)oc12)c1ccc(OCCCCc2ccccc2)cc1 .
Ans. 9.45%
